target: KRAS G12S (Homo sapiens (Human), UniProt P01116+P62937, G12S); assay: Ras-Raf (BRAF RBD) disruption / FRET / MOA assay, KRAS G12S; assay type: biochemical; settings: Ras-Raf disruption/FRET/MOA assay; class symbols; read-out: KRAS G12S FRET data IC50
Sequence (P01116-2 other isoform, or with tags, fused parts or gaps G12S): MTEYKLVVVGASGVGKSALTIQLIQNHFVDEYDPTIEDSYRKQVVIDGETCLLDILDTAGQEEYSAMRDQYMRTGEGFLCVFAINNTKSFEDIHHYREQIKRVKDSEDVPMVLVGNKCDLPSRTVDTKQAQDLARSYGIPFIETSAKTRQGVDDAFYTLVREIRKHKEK
Sequence (P62937 whole entry): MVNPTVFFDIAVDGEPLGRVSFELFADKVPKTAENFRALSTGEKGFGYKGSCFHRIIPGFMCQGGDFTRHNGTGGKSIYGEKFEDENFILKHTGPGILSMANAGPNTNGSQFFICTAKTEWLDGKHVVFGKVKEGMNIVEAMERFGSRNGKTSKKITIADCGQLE
pIC50: −log10 of the molar value.
Below is a list of entries, each paired with its recorded pIC50 value.

CCn1c(-c2cccnc2[C@H](C)OC)c2c3cc(ccc31)-c1csc(n1)C[C@H](NC(=O)[C@H](C(C)C)N(C)C(=O)N1CCC3(CC1)CN(C(=O)/C=C/CN(C)C)C3)C(=O)N1CCC[C@H](N1)C(=O)OCC(C)(C)C2 (atropisomer, axis not shown); 6.00 to 7.00
CO[C@@H](C)c1ncccc1-c1c2c3cc(ccc3n1CC(F)(F)F)-c1csc(n1)C[C@H](NC(=O)[C@H](C(C)C)N(C)C(=O)N1C[C@@H]3OCCN(C(=O)/C=C/C(F)F)[C@@H]3C1)C(=O)N1CCC[C@H](N1)C(=O)OCC(C)(C)C2 (atropisomer, axis not shown); 6.00 to 7.00
C=CC(=O)N1CC[C@H](C(=O)N(C)[C@H](C(=O)N[C@H]2Cc3cc(CF)cc(c3)-c3ccc4c(c3)c(c(-c3cccnc3[C@H](C)OC)n4CC)CC(C)(C)COC(=O)[C@@H]3CCCN(N3)C2=O)C(C)C)C1 (atropisomer, axis not shown) [Example A504]; 5.00 to 6.00
C=CC(=O)N1CC[C@H](C(=O)N(C)[C@H](C(=O)N[C@H]2Cc3cc(OC(=O)N(C)CC(=O)O)cc(c3)-c3ccc4c(c3)c(c(-c3ccccc3CCOC)n4CC)CC(C)(C)COC(=O)[C@@H]3CCCN(N3)C2=O)C(C)C)C1; < 5.00
C=CC(=O)N1CCO[C@H]2CN(C(=O)N(C)[C@H](C(=O)N[C@H]3Cc4nc(cs4)-c4ccc5c(c4)c(c(-c4cccnc4[C@H](C)OC)n5CC)CC(C)(C)COC(=O)[C@@H]4CCCN(N4)C3=O)C(C)C)C[C@@H]21 (atropisomer, axis not shown); 6.00 to 7.00
C=CC(=O)N(C)CCC1CCN(C(=O)N(C)[C@H](C(=O)N[C@H]2Cc3nc(cs3)-c3ccc4c(c3)c(c(-c3cccnc3[C@H](C)OC)n4CC)CC(C)(C)COC(=O)[C@@H]3CCCN(N3)C2=O)C(C)C)CC1 (atropisomer, axis not shown); 7.00 to 8.00

Challenge: What does the record list as pIC50 for CO[C@@H](C)c1ncccc1-c1c2c3cc(ccc3n1CC(F)(F)F)-c1nc(co1)C[C@H](NC(=O)[C@@H](COC1CN(C(=O)C#CC(C)(C)N(C)C)C1)C(C)C)C(=O)N1CCC[C@H](N1)C(=O)OCC(C)(C)C2 (atropisomer, axis not shown) ?
Response given: < 5.00

Challenge: What does the record list as pIC50 for C=CC(=O)N1CC[C@H](C(=O)N(C)[C@H](C(=O)NC2C[C@@H]3CN(CCO3)c3ccc4c(c3)c(c(-c3cccnc3COC)n4CC)CC(C)(C)COC(=O)[C@@H]3CCCN(N3)C2=O)C(C)C)C1 (some centres unmarked) ?
Response given: < 5.00

====

Below is a list of entries, each paired with its recorded pIC50 value.
biological target: K-Ras G12C (Homo sapiens (Human), UniProt P01116+P62937, G12C); experiment: Ras-Raf (BRAF RBD) disruption / FRET / MOA assay, KRAS G12C; format: biochemical; conditions: KRAS G12C; Ras-Raf disruption/FRET/MOA assay; read-out: IC50* KRAS G12C FRET data
Sequence (P01116-2 other isoform, or with tags, fused parts or gaps G12C, one chain of several): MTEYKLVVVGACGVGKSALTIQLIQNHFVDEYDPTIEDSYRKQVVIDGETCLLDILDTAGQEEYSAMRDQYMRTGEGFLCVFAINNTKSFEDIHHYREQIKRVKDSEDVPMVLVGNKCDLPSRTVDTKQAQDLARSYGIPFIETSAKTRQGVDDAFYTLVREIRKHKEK
pIC50: −log10 of the molar value.

Solved cases below.
CCn1c(-c2cccnc2[C@H](C)OC)c2c3cc(ccc31)-c1cccc(c1)C[C@H](NC(=O)[C@H](C(C)C)N(C)C(=O)[C@H]1CCN(C(=O)C#CC3(N(C)C)CN(C)C3)C1)C(=O)N1CCC[C@H](N1)C(=O)OCC(C)(C)C2 (atropisomer, axis not shown); 7.00 to 8.00
C=CC(=O)N1CC[C@H](C(=O)N(C)c2ccccc2C(=O)N[C@H]2Cc3cc(O)cc(c3)-c3ccc4c(c3)c(c(-c3cnccc3COC)n4CC)CC(C)(C)COC(=O)[C@@H]3CCCN(N3)C2=O)C1; 5.00 to 6.00
CCn1c(-c2cccnc2COC)c2c3cc(ccc31)-c1cc(O)cc(c1)C[C@H](NC(=O)[C@H](C(C)C)N(C)C(=O)[C@H]1CCN(C(=O)C#CCN3[C@H](C)COC[C@@H]3C)C1)C(=O)N1CCC[C@H](N1)C(=O)OCC(C)(C)C2; 7.00 to 8.00
CCn1c(-c2cccnc2[C@H](C)OC)c2c3cc(ccc31)-c1csc(n1)C[C@H](NC(=O)[C@H](C(C)C)N(C)C(=O)N1CCC3(CC1)CN(C(=O)/C=C/CN1CCCCC1)C3)C(=O)N1CCC[C@H](N1)C(=O)OCC(C)(C)C2 (atropisomer, axis not shown); 6.00 to 7.00
CO[C@@H](C)c1ncccc1-c1c2c3cc(ccc3n1CC(F)(F)F)-c1csc(n1)C[C@H](NC(=O)[C@H](C(C)C)N(C)C(=O)N1CCN(C(=O)/C=C/CN(C)C)C3(CC3)C1)C(=O)N1CCC[C@H](N1)C(=O)OCC(C)(C)C2 (atropisomer, axis not shown); 7.00 to 8.00

Challenge: Record lookup: for K-Ras G12C (Homo sapiens (Human), UniProt P01116+P62937, G12C), what pIC50 belongs to C=CC(=O)N1CC[C@H](C(=O)N(C)[C@H](C(=O)N[C@H]2C[C@H]3CN(CCO3)c3ccc4c(c3)c(c(-c3cccnc3[C@H](C)OC)n4CC)CC(C)(C)COC(=O)[C@@H]3CCCN(N3)C2=O)C(C)C)C1 (atropisomer, axis not shown) ?
Response given: 6.00 to 7.00

Challenge: Record lookup: for K-Ras G12C (Homo sapiens (Human), UniProt P01116+P62937, G12C), what pIC50 belongs to C=CC(=O)N1C[C@H](C)N(C(=O)N(C)[C@H](C(=O)N[C@H]2Cc3nc(cs3)-c3ccc4c(c3)c(c(-c3cccnc3[C@H](C)OC)n4CC)CC(C)(C)COC(=O)[C@@H]3CCCN(N3)C2=O)C(C)C)[C@@H](C)C1 (atropisomer, axis not shown) ?
Response given: 7.00 to 8.00

Challenge: Record lookup: for K-Ras G12C (Homo sapiens (Human), UniProt P01116+P62937, G12C), what pIC50 belongs to CCn1c(-c2cccnc2)c2c3cc(ccc31)-c1csc(n1)C[C@H](NC(=O)[C@H](C(C)C)N(C)C(=O)[C@H]1CCN(C(=O)C#CCN3CCOCC3)C1)C(=O)N1CCC[C@H](N1)C(=O)OCC(C)(C)C2 ?
Response given: 6.00 to 7.00
